Consider the following molecules; for each one, report its pIC50.
- target under test: PD-1/PD-L1 interaction (PD-1-Ig / PD-L1-His) (Homo sapiens, UniProt Q9NZQ7)
- Construct: hPDL1(18-239)-TVMV-His; TVMV protease site linker (C); made in house; host or cells: HEK293T
- Sequence (Q9NZQ7 with tags, fused parts or gaps): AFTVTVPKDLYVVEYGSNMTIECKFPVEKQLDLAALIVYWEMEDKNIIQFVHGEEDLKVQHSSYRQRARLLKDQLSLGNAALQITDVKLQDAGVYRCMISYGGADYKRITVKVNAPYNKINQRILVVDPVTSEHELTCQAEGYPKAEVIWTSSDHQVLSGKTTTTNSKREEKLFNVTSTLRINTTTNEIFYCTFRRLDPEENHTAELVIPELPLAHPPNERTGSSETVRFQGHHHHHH
- test summary: PD-1/PD-L1 Homogenous Time-Resolved Fluorescence (HTRF) binding assay
- setup conditions: IC50 range class; PD-L1-His 10 nM, PD-1-Ig 20 nM; read-out: Range or IC50
pIC50: −log10 of the molar value.

>  <molecule>
Cc1c(COc2cc(OCc3cncc(C#N)c3)c(CO)cc2Cl)cccc1-c1cccc(COc2cc(OCc3cncc(C#N)c3)c(CN(CC(C)C)C(CCO)C(=O)O)cc2Cl)c1C (centres unmarked)

>  <pIC50>
7.70 to 10.40

$$$$
>  <molecule>
Cc1c(COc2cc(OCc3cc(F)cc(F)c3)c(CN[C@@](C)(CO)C(=O)O)cc2Cl)cccc1-c1cccc(COc2cc(OCc3cc(F)cc(F)c3)c(CN[C@@](C)(CO)C(=O)O)cc2Cl)c1C

>  <pIC50>
7.70 to 10.40

$$$$
>  <molecule>
Cc1c(COc2cc(OCc3cncc(C#N)c3)c(Cl)cc2Cl)cccc1-c1cccc(COc2cc(OCc3cncc(C#N)c3)c(CN[C@](C)(CO)C(=O)O)cc2Cl)c1C

>  <pIC50>
7.70 to 10.40

$$$$
>  <molecule>
Cc1c(OCCCNCCC(N)=O)cccc1-c1cccc(OCCCN2CC[C@@H](O)C2)c1C

>  <pIC50>
6.00 to 7.05

$$$$

Then this molecule:
Query block: Please list pIC50 recorded for the molecule Cc1c(COc2cc(OCc3cncc(C#N)c3)c(CN[C@@H](Cc3cnc[nH]3)C(N)=O)cc2Cl)cccc1-c1cccc(COc2cc(OCc3cncc(C#N)c3)c(CN[C@@H](Cc3cnc[nH]3)C(N)=O)cc2Cl)c1C
Result block: 7.05 to 7.70
